Value source: patent US11395857B2

Assay Procedure: Biodistribution of 177Lu-labeled αMSH analogues in mice bearing B16F10 mouse melanoma
Type: in vivo, C57BL/6J mice
Conditions Used: male, mouse, seminal glands, iv, total radioactivity; 120 h p.i., C57BL/6J mice, B16F10 melanoma; read-out: Biodistribution, Seminal glands
Hi there, I'd appreciate the recorded tissue uptake at 120 h for every entry that follows.
The figure you give is taken to be in %ID/g; do not add the unit.

Q: Identify measured tissue uptake at 120 h associated with CCCC[C@H](NC(=O)CN1CCC(NC(=O)[C@H](CCCCNC(=O)CN2CCN(CC(=O)O)CCN(CC(=O)O)CCN(CC(=O)O)CC2)NC(=O)[C@H](CCC(=O)O)NC(=O)CCCc2ccc(I)cc2)CC1)C(=O)N[C@H]1CC(=O)NCCCC[C@@H](C(N)=O)NC(=O)[C@H](Cc2c[nH]c3ccccc23)NC(=O)[C@H](CCCNC(=N)N)NC(=O)[C@@H](Cc2ccccc2)NC(=O)[C@H](Cc2c[nH]cn2)NC1=O [^177Lu-labeled CCZ01082, metal not drawn]
Ans: 0.04

Q: Identify measured tissue uptake at 120 h associated with CCCC[C@H](NC(=O)CN1CCC(NC(=O)CN2CCN(CC(=O)O)CCN(CC(=O)O)CCN(CC(=O)O)CC2)CC1)C(=O)N[C@H]1CC(=O)NCCCC[C@@H](C(N)=O)N(C)C(=O)[C@H](Cc2c[nH]c3ccccc23)NC(=O)[C@H](CCCNC(=N)N)N(C)C(=O)[C@@H](Cc2ccccc2)NC(=O)[C@H](Cc2c[nH]cn2)NC1=O [^177Lu-labeled CCZ01106, metal not drawn]
Ans: 0.01

Q: Identify measured tissue uptake at 120 h associated with CCCC[C@H](NC(=O)CN1CCC(NC(=O)[C@H](CCCCNC(=O)CN2CCN(CC(=O)O)CCN(CC(=O)O)CCN(CC(=O)O)CC2)NC(=O)[C@H](CCC(=O)O)NC(=O)CCCc2ccc(I)cc2)CC1)C(=O)N[C@H]1CC(=O)NCCCC[C@@H](C(N)=O)N(C)C(=O)[C@H](Cc2c[nH]c3ccccc23)N(C)C(=O)[C@H](CCCNC(=N)N)N(C)C(=O)[C@@H](Cc2ccccc2)NC(=O)[C@H](Cc2c[nH]cn2)N(C)C1=O [^177Lu-labeled CCZ01088, metal not drawn]
Ans: 0.04

Q: Identify measured tissue uptake at 120 h associated with CCCC[C@H](NC(=O)CN1CCC(NC(=O)[C@H](CCCCNC(=O)CN2CCN(CC(=O)O)CCN(CC(=O)O)CCN(CC(=O)O)CC2)NC(=O)[C@H](CCC(=O)O)NC(=O)CCCc2ccc(I)cc2)CC1)C(=O)N[C@H]1CC(=O)NCCCC[C@@H](C(N)=O)N(C)C(=O)[C@H](Cc2c[nH]c3ccccc23)NC(=O)[C@H](CCCNC(=N)N)N(C)C(=O)[C@@H](Cc2ccccc2)NC(=O)[C@H](Cc2c[nH]cn2)NC1=O [^177Lu-labeled CCZ01118, metal not drawn]
Ans: 0.02

###

Hi there, I'd appreciate the recorded tissue uptake at 24 h for every entry that follows.
Assay Procedure: Biodistribution of 177Lu-labeled αMSH analogues in mice bearing SK-MEL-1 human melanoma
Conditions Used: male, NRG (NOD.Cg-Rag1tm1Mom Il2rgtm1Wjl/SzJ), mouse, lungs, total radioactivity
The figure you give is taken to be in %ID/g; do not add the unit.

Q: Identify measured tissue uptake at 24 h associated with CCCC[C@H](NC(=O)CN1CCC(NC(=O)[C@H](CCCCNC(=O)CN2CCN(CC(=O)O)CCN(CC(=O)O)CCN(CC(=O)O)CC2)NC(=O)CNC(=O)CCCc2ccc(-c3ccc(C)cc3)cc2)CC1)C(=O)N[C@H]1CC(=O)NCCCC[C@@H](C(N)=O)N(C)C(=O)[C@H](Cc2c[nH]c3ccccc23)NC(=O)[C@H](CCCNC(=N)N)N(C)C(=O)[C@@H](Cc2ccccc2)NC(=O)[C@H](Cc2c[nH]cn2)NC1=O [^177Lu-labeled CCZ01158, metal not drawn]
Ans: 1.55

Q: Identify measured tissue uptake at 24 h associated with CCCC[C@H](NC(=O)CN1CCC(NC(=O)[C@H](CCCCNC(=O)CN2CCN(CC(=O)O)CCN(CC(=O)O)CCN(CC(=O)O)CC2)NC(=O)CNC(=O)CCCc2ccc(I)cc2)CC1)C(=O)N[C@H]1CC(=O)NCCCC[C@@H](C(N)=O)N(C)C(=O)[C@H](Cc2c[nH]c3ccccc23)NC(=O)[C@H](CCCNC(=N)N)N(C)C(=O)[C@@H](Cc2ccccc2)NC(=O)[C@H](Cc2c[nH]cn2)NC1=O [^177Lu-labeled CCZ01148, metal not drawn]
Ans: 9.06

Q: Identify measured tissue uptake at 24 h associated with CCCC[C@H](NC(=O)CN1CCC(NC(=O)[C@H](CCCCNC(=O)CN2CCN(CC(=O)O)CCN(CC(=O)O)CCN(CC(=O)O)CC2)NC(=O)[C@H](CCC(=O)O)NC(=O)CCCc2ccc(I)cc2)CC1)C(=O)N[C@H]1CC(=O)NCCCC[C@@H](C(N)=O)N(C)C(=O)[C@H](Cc2c[nH]c3ccccc23)NC(=O)[C@H](CCCNC(=N)N)N(C)C(=O)[C@@H](Cc2ccccc2)NC(=O)[C@H](Cc2c[nH]cn2)NC1=O [^177Lu-labeled CCZ01118, metal not drawn]
Ans: 0.86

###

Assay Procedure: Biodistribution of 177Lu-labeled αMSH analogues in mice bearing B16F10 mouse melanoma
Assay type: in vivo, C57BL/6J mice
Conditions Used: mouse, muscle, iv, total radioactivity; 24 h p.i., C57BL/6J mice, B16F10 melanoma; read-out: Biodistribution, Muscle
Measurement Name: tissue uptake at 24 h (%ID/g)
The figure you give is taken to be in %ID/g; do not add the unit.

Q: Identify measured tissue uptake at 24 h associated with CCCC[C@H](NC(=O)CN1CCC(NC(=O)[C@H](CCCCNC(=O)CN2CCN(CC(=O)O)CCN(CC(=O)O)CCN(CC(=O)O)CC2)NC(=O)[C@H](CCC(=O)O)NC(=O)CCCc2ccc(I)cc2)CC1)C(=O)N[C@H]1CC(=O)NCCCC[C@@H](C(N)=O)N(C)C(=O)[C@H](Cc2c[nH]c3ccccc23)N(C)C(=O)[C@H](CCCNC(=N)N)N(C)C(=O)[C@@H](Cc2ccccc2)NC(=O)[C@H](Cc2c[nH]cn2)N(C)C1=O [^177Lu-labeled CCZ01088, metal not drawn]
Ans: 0.06

###

Hi there, I'd appreciate the recorded tissue uptake at 1 h for every entry that follows.
Assay Procedure: Biodistribution of 177Lu-labeled αMSH analogues in mice bearing SK-MEL-1 human melanoma
Conditions Used: male, NRG (NOD.Cg-Rag1tm1Mom Il2rgtm1Wjl/SzJ), mouse, spleen, total radioactivity
The figure you give is taken to be in %ID/g; do not add the unit.

Q: Identify measured tissue uptake at 1 h associated with CCCC[C@H](NC(=O)CN1CCC(NC(=O)[C@H](CCCCNC(=O)CN2CCN(CC(=O)O)CCN(CC(=O)O)CCN(CC(=O)O)CC2)NC(=O)CNC(=O)CCCc2ccc(I)cc2)CC1)C(=O)N[C@H]1CC(=O)NCCCC[C@@H](C(N)=O)N(C)C(=O)[C@H](Cc2c[nH]c3ccccc23)NC(=O)[C@H](CCCNC(=N)N)N(C)C(=O)[C@@H](Cc2ccccc2)NC(=O)[C@H](Cc2c[nH]cn2)NC1=O [^177Lu-labeled CCZ01148, metal not drawn]
Ans: 5.65

Q: Identify measured tissue uptake at 1 h associated with CCCC[C@H](NC(=O)CN1CCC(NC(=O)[C@H](CCCCNC(=O)CN2CCN(CC(=O)O)CCN(CC(=O)O)CCN(CC(=O)O)CC2)NC(=O)[C@H](CCC(=O)O)NC(=O)CCCc2ccc(I)cc2)CC1)C(=O)N[C@H]1CC(=O)NCCCC[C@@H](C(N)=O)N(C)C(=O)[C@H](Cc2c[nH]c3ccccc23)NC(=O)[C@H](CCCNC(=N)N)N(C)C(=O)[C@@H](Cc2ccccc2)NC(=O)[C@H](Cc2c[nH]cn2)NC1=O [^177Lu-labeled CCZ01118, metal not drawn]
Ans: 3.06

Q: Identify measured tissue uptake at 1 h associated with CCCC[C@H](NC(=O)CN1CCC(NC(=O)[C@H](CCCCNC(=O)CN2CCN(CC(=O)O)CCN(CC(=O)O)CCN(CC(=O)O)CC2)NC(=O)CNC(=O)CCCc2ccc(-c3ccc(C)cc3)cc2)CC1)C(=O)N[C@H]1CC(=O)NCCCC[C@@H](C(N)=O)N(C)C(=O)[C@H](Cc2c[nH]c3ccccc23)NC(=O)[C@H](CCCNC(=N)N)N(C)C(=O)[C@@H](Cc2ccccc2)NC(=O)[C@H](Cc2c[nH]cn2)NC1=O [^177Lu-labeled CCZ01158, metal not drawn]
Ans: 3.9

###

Assay Procedure: Biodistribution of 177Lu-labeled αMSH analogues in mice bearing SK-MEL-1 human melanoma
Conditions Used: male, NRG (NOD.Cg-Rag1tm1Mom Il2rgtm1Wjl/SzJ), mouse, intestine, total radioactivity
Hi there, I'd appreciate the recorded tissue uptake at 24 h for every entry that follows.
The figure you give is taken to be in %ID/g; do not add the unit.

Q: Identify measured tissue uptake at 24 h associated with CCCC[C@H](NC(=O)CN1CCC(NC(=O)[C@H](CCCCNC(=O)CN2CCN(CC(=O)O)CCN(CC(=O)O)CCN(CC(=O)O)CC2)NC(=O)[C@H](CCC(=O)O)NC(=O)CCCc2ccc(I)cc2)CC1)C(=O)N[C@H]1CC(=O)NCCCC[C@@H](C(N)=O)N(C)C(=O)[C@H](Cc2c[nH]c3ccccc23)NC(=O)[C@H](CCCNC(=N)N)N(C)C(=O)[C@@H](Cc2ccccc2)NC(=O)[C@H](Cc2c[nH]cn2)NC1=O [^177Lu-labeled CCZ01118, metal not drawn]
Ans: 0.19

Q: Identify measured tissue uptake at 24 h associated with CCCC[C@H](NC(=O)CN1CCC(NC(=O)[C@H](CCCCNC(=O)CN2CCN(CC(=O)O)CCN(CC(=O)O)CCN(CC(=O)O)CC2)NC(=O)CNC(=O)CCCc2ccc(I)cc2)CC1)C(=O)N[C@H]1CC(=O)NCCCC[C@@H](C(N)=O)N(C)C(=O)[C@H](Cc2c[nH]c3ccccc23)NC(=O)[C@H](CCCNC(=N)N)N(C)C(=O)[C@@H](Cc2ccccc2)NC(=O)[C@H](Cc2c[nH]cn2)NC1=O [^177Lu-labeled CCZ01148, metal not drawn]
Ans: 1.89

Q: Identify measured tissue uptake at 24 h associated with CCCC[C@H](NC(=O)CN1CCC(NC(=O)[C@H](CCCCNC(=O)CN2CCN(CC(=O)O)CCN(CC(=O)O)CCN(CC(=O)O)CC2)NC(=O)CNC(=O)CCCc2ccc(-c3ccc(C)cc3)cc2)CC1)C(=O)N[C@H]1CC(=O)NCCCC[C@@H](C(N)=O)N(C)C(=O)[C@H](Cc2c[nH]c3ccccc23)NC(=O)[C@H](CCCNC(=N)N)N(C)C(=O)[C@@H](Cc2ccccc2)NC(=O)[C@H](Cc2c[nH]cn2)NC1=O [^177Lu-labeled CCZ01158, metal not drawn]
Ans: 0.51
